Consider the following compounds; for each one, report its viability, T/C.
- System: 292921-168-R-J2-PDC complex spheroid growth
- Protocol description: Anticancer human tumor 292921-168-R-J2-PDC patient-derived pancreatic carcinoma cell line growth inhibition [AhR]
- Condition context: second compound 1 µM; first compound 0.000949 µM; stronger effect = lower value

What value of viability, T/C has been reported for the following compound? Nc1ncn(C2CC(O)C(CO)S2)c(=O)n1 (centres undefined) + CC(CO)NC(=O)c1cc(-c2ccc(Cl)cc2)nn(-c2cnn(C)c2)c1=O 97.7%

What value of viability, T/C has been reported for the following compound? Nc1ncn(C2CC(O)C(CO)S2)c(=O)n1 (centres undefined) + Cc1cncc(-c2nc(NCCc3c[nH]c4ccccc34)c3ncn(C(C)C)c3n2)c1 71.9%

What value of viability, T/C has been reported for the following compound? CC(C)CC(NC(=O)C(Cc1ccccc1)NC(=O)c1cnccn1)B(O)O (centres undefined) + Cc1ccccc1N=Nc1ccc(NC(=O)c2ccnn2C)c(C)c1 82.3%

What value of viability, T/C has been reported for the following compound? CCc1c2c(nc3ccc(O)cc13)-c1cc3c(c(=O)n1C2)COC(=O)[C@]3(O)CC + CC(CO)NC(=O)c1cc(-c2ccc(Cl)cc2)nn(-c2cnn(C)c2)c1=O 49.8%

What value of viability, T/C has been reported for the following compound? Nc1ncn(C2CC(O)C(CO)S2)c(=O)n1 (centres undefined) + Cc1ccccc1N=Nc1ccc(NC(=O)c2ccnn2C)c(C)c1 83.6%

What value of viability, T/C has been reported for the following compound? CCc1c2c(nc3ccc(O)cc13)-c1cc3c(c(=O)n1C2)COC(=O)[C@]3(O)CC + Cc1ccccc1N=Nc1ccc(NC(=O)c2ccnn2C)c(C)c1 68.6%

What value of viability, T/C has been reported for the following compound? CCc1c2c(nc3ccc(O)cc13)-c1cc3c(c(=O)n1C2)COC(=O)[C@]3(O)CC + Cc1cncc(-c2nc(NCCc3c[nH]c4ccccc34)c3ncn(C(C)C)c3n2)c1 57.6%

What value of viability, T/C has been reported for the following compound? CC(C)CC(NC(=O)C(Cc1ccccc1)NC(=O)c1cnccn1)B(O)O (centres undefined) + CC(CO)NC(=O)c1cc(-c2ccc(Cl)cc2)nn(-c2cnn(C)c2)c1=O 101%

What value of viability, T/C has been reported for the following compound? CC(C)CC(NC(=O)C(Cc1ccccc1)NC(=O)c1cnccn1)B(O)O (centres undefined) + Cc1cncc(-c2nc(NCCc3c[nH]c4ccccc34)c3ncn(C(C)C)c3n2)c1 82.3%

###

- Test system: 292921-168-R-J2-PDC complex spheroid growth
- Protocol description: Anticancer human tumor 292921-168-R-J2-PDC cell line growth inhibition [AhR];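 also: spheroids exposed to compounds for seven days after three days of growth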
- Condition context: second compound 10 µM; first compound 0.001 µM; stronger effect = lower value
For each record, check the reported viability, T/C: if it is below 70% write T, else write F.

Quick check: does CC[C@@]1(O)C(=O)OCc2c1cc1n(c2=O)Cc2cc3c(CN(C)C)c(O)ccc3nc2-1 + CC(CO)NC(=O)c1cc(-c2ccc(Cl)cc2)nn(-c2cnn(C)c2)c1=O have viability, T/C under 70%? T

Quick check: does Cn1ncnc1C1c2n[nH]c(=O)c3cc(F)cc(c23)NC1c1ccc(F)cc1 (stereo unspecified) + CC(CO)NC(=O)c1cc(-c2ccc(Cl)cc2)nn(-c2cnn(C)c2)c1=O have viability, T/C under 70%? F

Quick check: does Cn1ncnc1C1c2n[nH]c(=O)c3cc(F)cc(c23)NC1c1ccc(F)cc1 (stereo unspecified) + Cc1cncc(-c2nc(NCCc3c[nH]c4ccccc34)c3ncn(C(C)C)c3n2)c1 have viability, T/C under 70%? T

Quick check: does CC[C@@]1(O)C(=O)OCc2c1cc1n(c2=O)Cc2cc3c(CN(C)C)c(O)ccc3nc2-1 + Cc1cncc(-c2nc(NCCc3c[nH]c4ccccc34)c3ncn(C(C)C)c3n2)c1 have viability, T/C under 70%? T

Quick check: does CC[C@@]1(O)C(=O)OCc2c1cc1n(c2=O)Cc2cc3c(CN(C)C)c(O)ccc3nc2-1 + Cc1ccccc1N=Nc1ccc(NC(=O)c2ccnn2C)c(C)c1 have viability, T/C under 70%? T

###

- System: 292921-168-R-J2-PDC complex spheroid growth
- Protocol description: Anticancer human tumor 292921-168-R-J2-PDC cell line growth inhibition [AhR];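 also: spheroids exposed to compounds for seven days after three days of growth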
- Condition context: curve of first compound; second compound 3.16 µM
Quantity measured: pIC50
Note on units: pIC50 is unitless, being -log10 of a concentration expressed in mol/L.

What value of pIC50 has been reported for the following compound? NS(=O)(=O)OCC1CC(n2ccc3c(NC4CCc5ccccc54)ncnc32)CC1O (stereo not drawn) + CC(CO)NC(=O)c1cc(-c2ccc(Cl)cc2)nn(-c2cnn(C)c2)c1=O 6.68

What value of pIC50 has been reported for the following compound? COc1ccc([C@@H](O)c2cc(-c3ncnc4cc(N5CCOCC5)ccc34)c(F)cc2Cl)nn1 + Cc1cncc(-c2nc(NCCc3c[nH]c4ccccc34)c3ncn(C(C)C)c3n2)c1 6.22

###

Consider the following molecules; for each one, report its pIC50.
- Tested on: 292921-168-R-J2-PDC complex spheroid growth
- Protocol description: Anticancer human tumor 292921-168-R-J2-PDC cell line growth inhibition [AhR];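 also: spheroids exposed to compounds for seven days after three days of growth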
- Condition context: curve of first compound; second compound 0.1 µM
Note on units: pIC50 is unitless, being -log10 of a concentration expressed in mol/L.

What value of pIC50 has been reported for the following molecule? CC[C@@]1(O)C(=O)OCc2c1cc1n(c2=O)Cc2cc3c(CN(C)C)c(O)ccc3nc2-1 + Cc1cncc(-c2nc(NCCc3c[nH]c4ccccc34)c3ncn(C(C)C)c3n2)c1 7.41

What value of pIC50 has been reported for the following molecule? CCc1c2c(nc3ccc(O)cc13)-c1cc3c(c(=O)n1C2)COC(=O)[C@]3(O)CC + Cc1cncc(-c2nc(NCCc3c[nH]c4ccccc34)c3ncn(C(C)C)c3n2)c1 8.54

What value of pIC50 has been reported for the following molecule? COc1ccc([C@@H](O)c2cc(-c3ncnc4cc(N5CCOCC5)ccc34)c(F)cc2Cl)nn1 + CC(CO)NC(=O)c1cc(-c2ccc(Cl)cc2)nn(-c2cnn(C)c2)c1=O 5.74

###

- System: 292921-168-R-J2-PDC complex spheroid growth
- Protocol description: Anticancer human tumor 292921-168-R-J2-PDC cell line growth inhibition [AhR];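 also: spheroids exposed to compounds for seven days after three days of growth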
- Condition context: second compound 0.316 µM; first compound 0.000316 µM; stronger effect = lower value
Consider the following molecules; for each one, report its viability, T/C.

What value of viability, T/C has been reported for the following molecule? CC[C@@]1(O)C(=O)OCc2c1cc1n(c2=O)Cc2cc3c(CN(C)C)c(O)ccc3nc2-1 + Cc1ccccc1N=Nc1ccc(NC(=O)c2ccnn2C)c(C)c1 82.9%

What value of viability, T/C has been reported for the following molecule? Cn1ncnc1C1c2n[nH]c(=O)c3cc(F)cc(c23)NC1c1ccc(F)cc1 (stereo not drawn) + CC(CO)NC(=O)c1cc(-c2ccc(Cl)cc2)nn(-c2cnn(C)c2)c1=O 109%

What value of viability, T/C has been reported for the following molecule? CC[C@@]1(O)C(=O)OCc2c1cc1n(c2=O)Cc2cc3c(CN(C)C)c(O)ccc3nc2-1 + CC(CO)NC(=O)c1cc(-c2ccc(Cl)cc2)nn(-c2cnn(C)c2)c1=O 104%

###

- Tested on: 292921-168-R-J2-PDC complex spheroid growth
- Protocol description: Anticancer human tumor 292921-168-R-J2-PDC cell line growth inhibition [AhR];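 also: spheroids exposed to compounds for seven days after three days of growth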
- Condition context: curve of first compound; second compound 3.16 µM
Consider the following molecules; for each one, report its IC50.
Output spec: scalar in nM, unitless text.

What value of IC50 has been reported for the following molecule? CC1COCCN1c1cc(C2(S(C)(=N)=O)CC2)nc(-c2ccnc3[nH]ccc23)n1 (stereo not drawn) + Cc1cncc(-c2nc(NCCc3c[nH]c4ccccc34)c3ncn(C(C)C)c3n2)c1 1940

What value of IC50 has been reported for the following molecule? NS(=O)(=O)OCC1CC(n2ccc3c(NC4CCc5ccccc54)ncnc32)CC1O (stereo not drawn) + Cc1cncc(-c2nc(NCCc3c[nH]c4ccccc34)c3ncn(C(C)C)c3n2)c1 229

What value of IC50 has been reported for the following molecule? NS(=O)(=O)OCC1CC(n2ccc3c(NC4CCc5ccccc54)ncnc32)CC1O (stereo not drawn) + Cc1ccccc1N=Nc1ccc(NC(=O)c2ccnn2C)c(C)c1 138

###

- System: 292921-168-R-J2-PDC complex spheroid growth
- Protocol description: Anticancer human tumor 292921-168-R-J2-PDC cell line growth inhibition [AhR];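 also: spheroids exposed to compounds for seven days after three days of growth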
- Condition context: second compound 3.16 µM; first compound 0.000949 µM; stronger effect = lower value
Consider the following compounds; for each one, report its viability, T/C.
Output spec: scalar in %, unitless text.

What value of viability, T/C has been reported for the following compound? Nc1ncn(C2CC(O)C(CO)S2)c(=O)n1 (centres undefined) + Cc1ccccc1N=Nc1ccc(NC(=O)c2ccnn2C)c(C)c1 68.6

What value of viability, T/C has been reported for the following compound? Nc1ncn(C2CC(O)C(CO)S2)c(=O)n1 (centres undefined) + CC(CO)NC(=O)c1cc(-c2ccc(Cl)cc2)nn(-c2cnn(C)c2)c1=O 90.7

What value of viability, T/C has been reported for the following compound? CC(C)CC(NC(=O)C(Cc1ccccc1)NC(=O)c1cnccn1)B(O)O (centres undefined) + Cc1cncc(-c2nc(NCCc3c[nH]c4ccccc34)c3ncn(C(C)C)c3n2)c1 62.3

What value of viability, T/C has been reported for the following compound? CCc1c2c(nc3ccc(O)cc13)-c1cc3c(c(=O)n1C2)COC(=O)[C@]3(O)CC + CC(CO)NC(=O)c1cc(-c2ccc(Cl)cc2)nn(-c2cnn(C)c2)c1=O 44.4

What value of viability, T/C has been reported for the following compound? CCc1c2c(nc3ccc(O)cc13)-c1cc3c(c(=O)n1C2)COC(=O)[C@]3(O)CC + Cc1ccccc1N=Nc1ccc(NC(=O)c2ccnn2C)c(C)c1 54.4

What value of viability, T/C has been reported for the following compound? CC(C)CC(NC(=O)C(Cc1ccccc1)NC(=O)c1cnccn1)B(O)O (centres undefined) + CC(CO)NC(=O)c1cc(-c2ccc(Cl)cc2)nn(-c2cnn(C)c2)c1=O 85.8

What value of viability, T/C has been reported for the following compound? Nc1ncn(C2CC(O)C(CO)S2)c(=O)n1 (centres undefined) + Cc1cncc(-c2nc(NCCc3c[nH]c4ccccc34)c3ncn(C(C)C)c3n2)c1 52.2

What value of viability, T/C has been reported for the following compound? CC(C)CC(NC(=O)C(Cc1ccccc1)NC(=O)c1cnccn1)B(O)O (centres undefined) + Cc1ccccc1N=Nc1ccc(NC(=O)c2ccnn2C)c(C)c1 77.5

What value of viability, T/C has been reported for the following compound? CCc1c2c(nc3ccc(O)cc13)-c1cc3c(c(=O)n1C2)COC(=O)[C@]3(O)CC + Cc1cncc(-c2nc(NCCc3c[nH]c4ccccc34)c3ncn(C(C)C)c3n2)c1 44.6

Source: PubChem BioAssay AID1918994
